TESTED_ON: human CNR2 receptors (CB2 receptor) (Homo sapiens (Human))
PROTOCOL_SUMMARY: Radioligand binding assay, human CB2 (CNR2)
CONDITION: membranes of HEK cells expressing human CNR2, 2.6 nM [3H]-CP-55,940 radioligand; read-out: Binding assay human CB2 Ki
Exercise: state measured log10 Ki for each of the compounds provided.
Give log10 of Ki, with Ki taken in µM.

CCC(CC)(NC(=O)c1ccc(N2CC(F)C2)c(OC[C@H]2C[C@@H]2CO)n1)C(=O)OCCCF (single isomer, unassigned)
-2.77
CCC(CC)(NC(=O)c1ccc(N2CCCC2)c(OCC2(CO)COC2)n1)C(=O)OCCCF
0.14
CCC(CC)(NC(=O)c1ccc(N2CC(F)C2)c(OC[C@@H]2C[C@H]2CO)n1)C(=O)OCCCF (single isomer, unassigned)
-1.96
CCOC(=O)C(CC)(CC)NC(=O)c1ccc(N2CC(OC)C2)c(OCC(C)(C)COCF)n1
-0.84
CCC(CC)(NC(=O)c1ccc(N2CCCC2)c(OCC2(CO)COC2)n1)C(=O)OCCF
-0.22

# map each compound to its log10 Ki
1. CCOC(=O)C(CC)(CC)NC(=O)c1ccc(N2CC(OC)C2)c(OC[C@@H]2C[C@@H]2CF)n1 (mixture of isomers)
2. CCC(CC)(NC(=O)c1ccc(N2CC(OC)C2)c(OC[C@H]2C[C@@H]2CO)n1)C(=O)OCCCOS(=O)(=O)c1ccc(C)cc1

# output
-3.15
-1.67

* * *

TESTED_ON: UniProt P34972
PROTOCOL_SUMMARY: Radioligand binding assay, human CB2 (CNR2)
CONDITION: membranes of HEK cells expressing human CNR2, 2.6 nM [3H]-CP-55,940 radioligand; read-out: Binding assay human CB2 Ki
QUANTITY: pKi
Give bare numbers, as −log10 of the molar value.

COC1CN(c2ccc(C(=O)N[C@H](COCCF)CC(C)C)nc2OCC2COC2)C1
6.48
CCC(CC)(NC(=O)c1ccc(N2CC(OC)C2)c(OC[C@@H]2C[C@H]2CO)n1)C(=O)OCCCF
7.73
CCOC(=O)C(CC)(CC)NC(=O)c1ccc(N2CC(OC)C2)c(OC[C@@H]2C[C@H]2COCF)n1
8.09

# input Please tell me the measured pKi for CCOC(=O)C(CC)(CC)NC(=O)c1ccc(N2CC(OC)C2)c(OC[C@@H]2C[C@@H]2COCCF)n1 (mixture of isomers) ; system: UniProt P34972.
# output 7.89

* * *

Exercise: state measured Ki for each of the molecules provided.
TESTED_ON: human CNR2 receptors (CB2 receptor) (Homo sapiens (Human), UniProt P34972)
Sequence (P34972 whole entry): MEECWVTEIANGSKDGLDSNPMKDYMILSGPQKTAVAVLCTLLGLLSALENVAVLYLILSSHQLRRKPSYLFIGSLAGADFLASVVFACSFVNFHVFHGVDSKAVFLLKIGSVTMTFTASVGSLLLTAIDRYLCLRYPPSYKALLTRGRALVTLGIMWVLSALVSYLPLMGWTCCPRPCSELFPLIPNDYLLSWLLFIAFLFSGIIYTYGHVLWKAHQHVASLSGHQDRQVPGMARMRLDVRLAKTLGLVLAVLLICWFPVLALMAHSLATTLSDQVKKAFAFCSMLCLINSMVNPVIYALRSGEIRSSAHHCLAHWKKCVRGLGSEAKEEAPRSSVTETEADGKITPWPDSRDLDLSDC
PROTOCOL_SUMMARY: Radioligand binding assay, human CB2 (CNR2)
CONDITION: membranes of HEK cells expressing human CNR2, 2.6 nM [3H]-CP-55,940 radioligand; read-out: Binding assay human CB2 Ki
Output should be the measured figure followed by the unit it is expressed in.

Would you please look over these solved cases?
CCOC(=O)C(CC)(CC)NC(=O)c1cc(F)c(N2CC(OC)C2)c(OCC2CC2)n1 [Example 7]
2.5 nM
[2H]C([2H])(OC(=O)C(CC)(CC)NC(=O)c1ccc(N2CC(OC)C2)c(OC[C@H]2C[C@@H]2CO)n1)C([2H])([2H])C([2H])([2H])OS(=O)(=O)c1ccc(C)cc1 [Example 24]
65.5 nM
CCC(CC)(NC(=O)c1ccc(N2CCCC2)c(OCC2(CO)COC2)n1)C(=O)OCF [Example 33]
348 nM

# input For the molecule CCC(CC)(NC(=O)c1ccc(N2CC(OC)C2)c(OC[C@H]2C[C@@H]2COCc2ccccc2)n1)C(=O)OCCCF [Example 32] , give its measured Ki value.
# output 246 nM
